# credit: paper PMC4393269

MIC: recorded values
system: S. aureus ATCC 29213; test: Broth microdilution MIC/MBC on planktonic cells; type: cell-based; conditions: Staphylococcus aureus, ATCC29213; S. aureus ATCC 29213, 24 h at 37°C; read-out: MIC
Where a name gives a salt, the structure may show the parent alone.
Return type: number; implicit unit µg/mL.

Recorded results for 10 compounds are shown here.
>>> meas_value("Cc1ccc(C(C)C)cc1OC(=O)CCCC[C@@H]1CCSS1")
10000
>>> meas_value("CSCC[C@H](NC(C)=O)C(=O)Oc1cc(C(C)C)ccc1C")
10000
>>> meas_value("C#CCSC[C@H](NC(C)=O)C(=O)Oc1cc(C(C)C)ccc1C")
10000
>>> meas_value("CSC[C@H](NC(C)=O)C(=O)Oc1cc(C(C)C)ccc1C")
10000
>>> meas_value("Cc1ccc(C(C)C)cc1OC(=O)[C@@H]1CSCN1 [codrug 8, TFA·TCA-CAR]")
5000
>>> meas_value("CCSC[C@H](NC(C)=O)C(=O)Oc1cc(C(C)C)ccc1C [codrug 3, N-Ac-Cys(Ethyl)-CAR]")
10000
>>> meas_value("CC(=O)N[C@@H](CS)C(=O)Oc1cc(C(C)C)ccc1C")
10000
>>> meas_value("Cc1ccc(C(C)C)cc1OC(=O)[C@@H]1CSC(=O)N1")
10000
>>> meas_value("C=CCSC[C@H](NC(C)=O)C(=O)Oc1cc(C(C)C)ccc1C")
2500
>>> meas_value("C[Se]CC[C@H](NC(C)=O)C(=O)Oc1cc(C(C)C)ccc1C [codrug 6, N-Ac-Met(Se)-CAR]")
10000

Input: // lookup MIC for CC(=O)N[C@@H](CS)C(=O)O [NAC, N-Acetyl-cysteine, reference compound]
Output: 5000

Input: Fill in: MIC of `C=CCSC[C@H](NC(C)=O)C(=O)O` is ___
Output: 5000

* * *

System: human red blood cells (h-RBC)
Experiment: Hemolytic activity
Assay type: cell-based
Details: 4% h-RBC, 1 h at 37°C
Description: Experimental protocols to study hemolysis on human red cells were approved by Ethics Committee of the University “G. d’Annunzio” Chieti-Pescara. Human red cells were from two volunteers, who signed the informed consent for this study. Hemolytic activity of carvacrol codrugs 1–10 was tested against human red blood cells (h-RBC). Fresh human blood, collected with EDTA, was centrifuged at 3000 rpm for 5 min then washed three times with PBS pH 7.3. […]
Where a name gives a salt, the structure may show the parent alone.
measurement.kind: concentration at which hemolytic activity is over 50% (µg/mL)
I only need the number, in µg/mL, no unit after it.

Recorded results for 2 compounds are shown here.
>>> meas_value("C#CCSC[C@H](NC(C)=O)C(=O)Oc1cc(C(C)C)ccc1C")
10000
>>> meas_value("C=CCSC[C@H](NC(C)=O)C(=O)Oc1cc(C(C)C)ccc1C")
5000

Input: Requested field: concentration at which hemolytic activity is over 50%. Item: Cc1ccc(C(C)C)cc1OC(=O)[C@@H]1CSCN1 [codrug 8, TFA·TCA-CAR]
Output: 3000

* * *

assay: Drug stability in simulated intestinal fluid with pancreatin; format: in vitro ADME; settings: simulated intestinal fluid with pancreatin 10 mg/mL, pH 7.4, SIF pH 7.4, pancreatin 10 mg/mL, 37°C; read-out: t½ (converted)
measurement.kind: half-life at 8.3 µM (h)
Number in h, nothing else.

Input: I am curious: what half-life at 8.3 µM value has been reported for `C=CCSC[C@H](NC(C)=O)C(=O)Oc1cc(C(C)C)ccc1C` ?
Output: 5.5
